Cited source: ChEMBL document CHEMBL1255346

tested on: Escherichia coli; test: Antibacterial activity against Escherichia coli EC600 by agar dilution method; type: functional
Here, each record is paired with measured MIC data.

molSmiles: C[C@@H](O)[C@H]1C(=O)N2C(C(=O)O)=C(S[C@@H]3CN[C@H](C(=O)Nc4cccc(C(=O)O)c4)C3)[C@H](C)[C@H]12
reportedRelation: ≤
MIC / µg/mL: 0.125
--
molSmiles: CO[C@@]1(NC(=O)Cc2cccs2)C(=O)N2C(C(=O)O)=C(COC(N)=O)CS[C@@H]21
reportedRelation: =
MIC / µg/mL: 8
--
molSmiles: C[C@@H](O)[C@H]1C(=O)N2C(C(=O)O)=C(S[C@@H]3CN[C@H](C(=O)N(C)C)C3)[C@H](C)[C@H]12
reportedRelation: ≤
MIC / µg/mL: 0.125
--
molSmiles: CC1(C)S[C@@H]2[C@H](NC(=O)[C@H](N)c3ccccc3)C(=O)N2[C@H]1C(=O)O
reportedRelation: =
MIC / µg/mL: 8
